test system: SF-268 CNS; experiment: NCI tumour cell line growth inhibition, 48 h
property-label: GI50

{"molecule": "CCOc1ccc(Nc2nc(-c3ccc4c(c3)NC(=O)CO4)cs2)cc1", "tested-on": "SF-268 CNS", "GI50": "36.7 µM"}
{"molecule": "O=S(=O)(c1ccc(N=C2NN=C(c3c[nH]c4ccccc34)CS2)cc1)N1CCOCC1", "tested-on": "SF-268 CNS", "GI50": "73.7 µM"}

Reported GI50, molecule `CC1(C)CC(n2cnc(-c3ccc(F)cc3)c2-c2ccnc(N)n2)CC(C)(C)N1` : ____
18.7 µM

Further, for `CC[Si](CC)(CC)OC[C@]1([C@@H]2COC(C)(C)O2)CC=CC(=O)O1` ?
41.5 µM

Repeat with CCC[CH2][Sn]([CH2]CCC)([O]C(=O)C(N)CSC)[O]C(=O)C(N)CSC (stereo not drawn)
4.06 µM

Subsequent entry: `O=c1[nH]ccc2nc(N3CCC(O)CC3)nc(Nc3cccc(C(F)(F)F)c3)c12`
3.06 µM

Do the same for `CC/C(=C(/CC)c1ccc(O)cc1)c1ccc([O-])cc1.CC/C(=C(/CC)c1ccc(O)cc1)c1ccc([O-])cc1.O=C([CH-]C(=O)c1ccccc1)c1ccccc1.O=C([CH-]C(=O)c1ccccc1)c1ccccc1.[Ti+4]` please
18 µM

Moving on to `NC1CCCCC1N.O=S(=O)([O-])CCCN1CCOCC1.O=S(=O)([O-])CCCN1CCOCC1.[Pt+4]`
9.92 µM
